tested on: SN12C renal; assay: NCI tumour cell line growth inhibition, 48 h
# TGI values compiled below

>  <molecule>
CCN(CC)CCCN(c1cc(OC)cc2nccnc12)S(=O)(=O)c1ccc(C)cc1

>  <TGI>
> 100 µM

$$$$
>  <molecule>
CSC(=S)c1ccc(C(=S)SC)cc1

>  <TGI>
> 100 µM

$$$$
>  <molecule>
O=C(O)c1ccc(NC(=O)C2C(=O)C(=O)N(c3ccc(C(=O)O)cc3)C2=O)cc1 (stereo not drawn)

>  <TGI>
> 100 µM

$$$$

* * *

tested on: CAKI-1 renal; assay: NCI tumour cell line growth inhibition, 48 h
assay-readout: log10 of TGI (log10 of the value in µM)

>  <compound>
Oc1ccc(C(c2ccccc2)(c2ccccc2)c2ccccc2)cc1

>  <assay-target>
CAKI-1 renal

>  <log10 of TGI>
1.47

$$$$
>  <compound>
Oc1ccc2ccccc2c1C=NCCCN=Cc1c(O)ccc2ccccc12

>  <assay-target>
CAKI-1 renal

>  <log10 of TGI>
1.69

$$$$
>  <compound>
O=[N+]([O-])c1ccc(N2CCN(Cc3ccccc3)CC2)c2c1no[n+]2[O-]

>  <assay-target>
CAKI-1 renal

>  <log10 of TGI>
0.54

$$$$
>  <compound>
O=C(CCN1CCN(c2cccc(Cl)c2)CC1)N1CCc2c([nH]c3ccccc23)C1c1cccnc1 (stereo not given)

>  <assay-target>
CAKI-1 renal

>  <log10 of TGI>
1.16

$$$$
>  <compound>
C=C1C(=O)O[C@H]2[C@H]1CC/C(COC(=O)C(=O)c1c[nH]c3ccccc13)=C\CC[C@@]1(C)O[C@@H]21

>  <assay-target>
CAKI-1 renal

>  <log10 of TGI>
1.13

$$$$
>  <compound>
O=C(c1ccccc1)c1ccc(C(c2c(O)c3ccccc3oc2=O)c2c(O)c3ccccc3oc2=O)cc1

>  <assay-target>
CAKI-1 renal

>  <log10 of TGI>
1.40

$$$$
>  <compound>
C=C1C(=O)O[C@@H]2[C@H]3O[C@]3(C)CCC=C(C)CC[C@@H]12

>  <assay-target>
CAKI-1 renal

>  <log10 of TGI>
1.35

$$$$
>  <compound>
CCC1(C)C=Cc2c(cc(OC)c3c(=O)c4ccccc4n(C)c23)O1 (stereo not given)

>  <assay-target>
CAKI-1 renal

>  <log10 of TGI>
0.40

$$$$

* * *

tested on: SR leukemia; assay: NCI tumour cell line growth inhibition, 48 h
assay-readout: TGI

>  <compound>
CC1C(c2ccc(F)cc2)c2cc3c(cc2OC1N1CCCC1)OCO3 (centres undefined)

>  <assay-target>
SR leukemia

>  <assay-readout>
TGI

>  <value-measured>
> 100 µM

$$$$
>  <compound>
CC1=CC=NN2C(=O)[C@H](C)C2C1 (some centres undefined)

>  <assay-target>
SR leukemia

>  <assay-readout>
TGI

>  <value-measured>
> 100 µM

$$$$
>  <compound>
CN(C)c1nc(N(C)C)nc(N(C)C)n1

>  <assay-target>
SR leukemia

>  <assay-readout>
TGI

>  <value-measured>
> 150 µM

$$$$
>  <compound>
CCOC(=O)C1(C(=O)OCC)C[C@]23OCCC(=O)[C@H]2[C@H]2C(=O)OC(C)(C)O[C@]23C1

>  <assay-target>
SR leukemia

>  <assay-readout>
TGI

>  <value-measured>
> 100 µM

$$$$
>  <compound>
CCC/C(=N\NC(=S)N1CCN(c2ccccn2)CC1)c1ccccn1

>  <assay-target>
SR leukemia

>  <assay-readout>
TGI

>  <value-measured>
0.117 µM

$$$$
>  <compound>
CCn1c(=O)c(-c2ccn[nH]2)cc2c(C)nc(N)nc21

>  <assay-target>
SR leukemia

>  <assay-readout>
TGI

>  <value-measured>
> 100 µM

$$$$
>  <compound>
CC(C)(C)[OH+][O-].[O-]c1ccc(Cl)cc1C=Nc1ccc(Cl)cc1[O-].[O]=[V]

>  <assay-target>
SR leukemia

>  <assay-readout>
TGI

>  <value-measured>
> 100 µM

$$$$
>  <compound>
CCc1ccc(-c2nnc(COc3ccc(-c4nc5ccc(C)cc5[nH]4)cc3OC)o2)cc1

>  <assay-target>
SR leukemia

>  <assay-readout>
TGI

>  <value-measured>
5.22 µM

$$$$
>  <compound>
CC1=C(/C=C/C(C)=C/C=C/C(C)=C/C(=O)OCC2OC(n3cc(F)c(=O)[nH]c3=O)CC2OC(=O)/C=C(C)/C=C/C=C(C)/C=C/C2=C(C)CCCC2(C)C)C(C)(C)CCC1 (centres undefined)

>  <assay-target>
SR leukemia

>  <assay-readout>
TGI

>  <value-measured>
> 59.6 µM

$$$$
